Assign Quantity to each entry below.
protocolNotes: Quantity of the metabolite found in the urine of the embryonal rhabdomyosarcoma patients treated with ifosfamide from 1200 mL of urine tested on day 7
Assay type: ADME
conditionDetails: human
Write it as a number; the unit mg goes unstated.

Problem: GET /values?readout=Quantity&item= O=C1CCOP(=O)(NCCCl)N1CCCl (stereo not given) [4-KETOIFOSFAMIDE]
Solution: 84

Problem: Note, next up: NP1(=O)OCCCN1CCCl (stereo not given)
Solution: 180

Problem: Note, next up: O=C(O)CCOP(=O)(NCCCl)NCCCl
Solution: 312

Problem: Note, next up: O=P1(NCCCl)OCCCN1CCCl (stereo not given) [IFOSFAMIDE]
Solution: 432

Problem: Note, next up: O=P1(NCCCl)NCCCO1 (stereo not given)
Solution: 348

====

Assign Quantity to each entry below.
protocolNotes: Quantity of the metabolite found in the urine of the embryonal rhabdomyosarcoma patients treated with ifosfamide from 1300 mL of urine tested on day 8
Format: ADME, tissue-based
conditionDetails: human
Write it as a number; the unit mg goes unstated.

Problem: GET /values?readout=Quantity&item= NP1(=O)OCCCN1CCCl (stereo not given)
Solution: 130

Problem: Note, next up: O=P1(NCCCl)OCCCN1CCCl (stereo not given) [IFOSFAMIDE]
Solution: 494

Problem: Note, next up: O=P1(NCCCl)NCCCO1 (stereo not given)
Solution: 338

Problem: Note, next up: O=C1CCOP(=O)(NCCCl)N1CCCl (stereo not given) [4-KETOIFOSFAMIDE]
Solution: 78

Problem: Note, next up: O=C(O)CCOP(=O)(NCCCl)NCCCl
Solution: 56

====

protocolNotes: Quantity of the metabolite found in the urine of the embryonal rhabdomyosarcoma patients treated with ifosfamide from 2310 mL of urine tested on day 4
Type: ADME
conditionDetails: human
Assign Quantity to each entry below.
Write it as a number; the unit mg goes unstated.

Problem: GET /values?readout=Quantity&item= O=P1(NCCCl)OCCCN1CCCl (stereo not given) [IFOSFAMIDE]
Solution: 442

Problem: Note, next up: O=P1(NCCCl)NCCCO1 (stereo not given)
Solution: 432

Problem: Note, next up: O=C1CCOP(=O)(NCCCl)N1CCCl (stereo not given) [4-KETOIFOSFAMIDE]
Solution: 34

Problem: Note, next up: O=C(O)CCOP(=O)(NCCCl)NCCCl
Solution: 62

Problem: Note, next up: NP1(=O)OCCCN1CCCl (stereo not given)
Solution: 163

====

protocolNotes: Quantity of the metabolite found in the urine of the embryonal rhabdomyosarcoma patients treated with ifosfamide from 1600 mL of urine tested on day 10
Type: ADME
conditionDetails: human
Assign Quantity to each entry below.
Write it as a number; the unit mg goes unstated.

Problem: GET /values?readout=Quantity&item= O=P1(NCCCl)NCCCO1 (stereo not given)
Solution: 320

Problem: Note, next up: O=C1CCOP(=O)(NCCCl)N1CCCl (stereo not given) [4-KETOIFOSFAMIDE]
Solution: 66

Problem: Note, next up: O=P1(NCCCl)OCCCN1CCCl (stereo not given) [IFOSFAMIDE]
Solution: 421

Problem: Note, next up: O=C(O)CCOP(=O)(NCCCl)NCCCl
Solution: 130

Problem: Note, next up: NP1(=O)OCCCN1CCCl (stereo not given)
Solution: 160

====

protocolNotes: Portion of holoxan excreted in the form of the metabolite from 1500 mL of urine on day 9 was determined in embryonal rhabdomyosarcoma patients treated with ifosfamide
Format: ADME, tissue-based
conditionDetails: human, in vivo
Assign Excretion to each entry below.
Write it as a number; the unit % goes unstated.

Problem: GET /values?readout=Excretion&item= O=P1(NCCCl)OCCCN1CCCl (stereo not given) [IFOSFAMIDE]
Solution: 100

Problem: Note, next up: O=C(O)CCOP(=O)(NCCCl)NCCCl
Solution: 100

Problem: Note, next up: NP1(=O)OCCCN1CCCl (stereo not given)
Solution: 100

Problem: Note, next up: O=P1(NCCCl)NCCCO1 (stereo not given)
Solution: 100

Problem: Note, next up: O=C1CCOP(=O)(NCCCl)N1CCCl (stereo not given) [4-KETOIFOSFAMIDE]
Solution: 100

====

protocolNotes: Quantity of the metabolite found in the urine of the embryonal rhabdomyosarcoma patients treated with ifosfamide from 1300 mL of urine tested on day 6
Type: ADME
conditionDetails: human
Values of Quantity greater than or equal to 300 mg map to Condition met; values below map to Condition not met.

Problem: For this molecule, is measured Quantity 300 mg or higher? O=C1CCOP(=O)(NCCCl)N1CCCl (stereo not given) [4-KETOIFOSFAMIDE]
Solution: Condition not met

Problem: Note, next up: O=P1(NCCCl)OCCCN1CCCl (stereo not given) [IFOSFAMIDE]
Solution: Condition met

Problem: Note, next up: O=C(O)CCOP(=O)(NCCCl)NCCCl
Solution: Condition met

Problem: Note, next up: NP1(=O)OCCCN1CCCl (stereo not given)
Solution: Condition not met

Problem: Note, next up: O=P1(NCCCl)NCCCO1 (stereo not given)
Solution: Condition met

====

protocolNotes: Quantity of the metabolite found in the urine of the embryonal rhabdomyosarcoma patients treated with ifosfamide from 1200 mL of urine tested on day 3
Assay type: ADME, tissue-based
conditionDetails: human
readoutName: Quantity (mg)
Write it as a number; the unit mg goes unstated.

Problem: GET /values?readout=Quantity&item= O=C1CCOP(=O)(NCCCl)N1CCCl (stereo not given) [4-KETOIFOSFAMIDE]
Solution: 44

Problem: Note, next up: O=P1(NCCCl)NCCCO1 (stereo not given)
Solution: 198

Problem: Note, next up: NP1(=O)OCCCN1CCCl (stereo not given)
Solution: 64

Problem: Note, next up: O=C(O)CCOP(=O)(NCCCl)NCCCl
Solution: 70

Problem: Note, next up: O=P1(NCCCl)OCCCN1CCCl (stereo not given) [IFOSFAMIDE]
Solution: 348

====

protocolNotes: Portion of holoxan excreted in the form of the metabolite from 1700 mL of urine on day 5 was determined in embryonal rhabdomyosarcoma patients treated with ifosfamide
Assay type: ADME, tissue-based
conditionDetails: human, in vivo
Assign Excretion to each entry below.
Write it as a number; the unit % goes unstated.

Problem: GET /values?readout=Excretion&item= O=C(O)CCOP(=O)(NCCCl)NCCCl
Solution: 40.2

Problem: Note, next up: O=P1(NCCCl)OCCCN1CCCl (stereo not given) [IFOSFAMIDE]
Solution: 40.2

Problem: Note, next up: O=P1(NCCCl)NCCCO1 (stereo not given)
Solution: 40.2

Problem: Note, next up: NP1(=O)OCCCN1CCCl (stereo not given)
Solution: 40.2

Problem: Note, next up: O=C1CCOP(=O)(NCCCl)N1CCCl (stereo not given) [4-KETOIFOSFAMIDE]
Solution: 40.2

====

protocolNotes: Quantity of the metabolite found in the urine of the embryonal rhabdomyosarcoma patients treated with ifosfamide from 1700 mL of urine tested on day 5
Assay type: ADME
conditionDetails: human
Values of Quantity greater than or equal to 200 mg map to Satisfied; values below map to Not satisfied.

Problem: For this compound, is measured Quantity 200 mg or higher? NP1(=O)OCCCN1CCCl (stereo not given)
Solution: Not satisfied

Problem: Note, next up: O=C1CCOP(=O)(NCCCl)N1CCCl (stereo not given) [4-KETOIFOSFAMIDE]
Solution: Not satisfied

Problem: Note, next up: O=C(O)CCOP(=O)(NCCCl)NCCCl
Solution: Not satisfied

Problem: Note, next up: O=P1(NCCCl)NCCCO1 (stereo not given)
Solution: Satisfied
